- Assay Name: Stability assay in 25% TIDE 2X detergent with DTPA (residual Abz-AGLA-Nba protease activity)
- Assay type: physicochemical
- Test Parameters: 60 min at 32°C; variant residual AGLA activity divided by wild-type residual activity
Readout Kind: PI (relative stability), 25% TIDE 2X with DTPA
Write the number on its own, no unit after it.

Entry Q128T: single-substitution thermolysin variant (SEQ ID NO:3 numbering) (protein, listed as Geobacillus caldoproteolyticus) ITGTSTVGVGRGVLGDQKNINTTYSTYYYLQDNTRGNGIFTYDAKYRTTLPGSLWADADNQFFASYDAPAVDAHYYAGVTYDYYKNVHNRLSYDGNNAAIRSSVHYSQGYNNAFWNGSQMVYGDGDGTTFIPLSGGIDVVAHELTHAVTDYTAGLIYQNESGAINEAISDIFGTLVEFYANKNPDWEIGEDVYTPGISGDSLRSMSDPAKYGDPDHYSKRYTGTQDNGGVHINSGIINKAAYLISQGGTHYGVSVVGIGRDKLGKIFYRALTQYLTPTSNFSQLRAAAVQSATDLYGSTSQEVASVKQAFDAVGVK — recorded PI (relative stability), 25% TIDE 2X with DTPA = 1.18
